Recorded measurements of concentration at 0.25 h, one per entry
- Procedure text: Cerebrospinal fluid and plasma distribution in vivo
- Cond: rat, cerebrospinal fluid; 0.25h, male rats, intravenous 5 mg/kg, n = 1; read-out: Cerebrospinal fluid
Respond numerically; units are ng/g and should not be typed.

Would you please look over these solved cases?
>  <Compound>
[2H]C([2H])([C@H]1CCc2nc(C)c(=O)[nH]c2C1)N1CCN(c2ccc(C(=O)NC)nc2F)CC1

>  <Measured parameter>
concentration at 0.25 h

>  <Quantitative readout>
86

$$$$
>  <Compound>
[2H]C([2H])([2H])NC(=O)c1ccc(N2CCN(C[C@H]3CCc4nc(C)c(=O)[nH]c4C3)CC2)c(F)n1

>  <Measured parameter>
concentration at 0.25 h

>  <Quantitative readout>
119

$$$$
>  <Compound>
CNC(=O)c1ccc(N2CCN(CC3Cc4[nH]c(=O)c(C(F)F)cc4CO3)CC2)c(F)n1 (stereo not drawn)

>  <Measured parameter>
concentration at 0.25 h

>  <Quantitative readout>
16

$$$$
>  <Compound>
CNC(=O)c1ccc(N2CCN(CC3Cc4[nH]c(=O)c(Cl)cc4CO3)CC2)c(F)n1 (stereo not drawn)

>  <Measured parameter>
concentration at 0.25 h

>  <Quantitative readout>
102

$$$$
>  <Compound>
CNC(=O)c1ccc(N2CCN(C[C@H]3CCc4nc(C)c(=O)[nH]c4C3)CC2)c(C)n1

>  <Measured parameter>
concentration at 0.25 h

>  <Quantitative readout>
64

$$$$

Now let's try a different one.
I would be grateful if you could share the reported concentration at 0.25 h for CNC(=O)c1ccc(N2CCN(CC3COc4cc(C)c(=O)[nH]c4C3)CC2)c(F)n1 (stereo not drawn) . 52
